- System: methicillin resistant Staphylococcus epidermidis (ATCC 27626)
- assay.explanation: microbe, parasite or virus in culture
- Format: cell-based
- protocol.conditions: Staphylococcus epidermidis, ATCC 27626 / MRSE, Example 2; values separated by / are repeat tests; read-out: Antimicrobial potency (MIC) MRSE
Record form. Attribute: MIC. Fill in for each entry.
// units = µg/mL; emit number, no label

[in] Give MIC only, for COc1cc(CC(CN)(Cc2cc(OC)cc(OC)c2)C(=O)NCCN)cc(OC)c1 [Compound 13] , using methicillin resistant Staphylococcus epidermidis (ATCC 27626) data.
[out] 100

[in] Give MIC only, for CN1CCN(C(=O)C(CN)(Cc2ccc(C(C)(C)C)cc2)Cc2ccc(C(C)(C)C)cc2)CC1 [Compound 29] , using methicillin resistant Staphylococcus epidermidis (ATCC 27626) data.
[out] 5

[in] Give MIC only, for CN1CCN(C(=O)C(CN)(Cc2ccc3ccccc3c2)Cc2ccc3ccccc3c2)CC1 [Compound 32] , using methicillin resistant Staphylococcus epidermidis (ATCC 27626) data.
[out] 10

====

Record form. Attribute: MIC. Fill in for each entry.
- Test system: methicillin resistant Staphylococcus epidermidis (ATCC 27626)
- assay.explanation: microbe, parasite or virus in culture
- Type: cell-based
- protocol.conditions: Staphylococcus epidermidis, ATCC 27626 / MRSE, Example 2; values separated by / are repeat tests; read-out: Antimicrobial potency (MIC) MRSE

[in] Provide one value: measured MIC of CN(C)CCN1CCN(C(=O)C(CN)(Cc2ccc(C(F)(F)F)cc2)Cc2ccc(C(F)(F)F)cc2)CC1 [Compound 38]
[out] 50 µg/mL

[in] Provide one value: measured MIC of NCCNC(=O)C(CN)(Cc1ccccc1)Cc1ccccc1 [Compound 4]
[out] > 200 µg/mL

[in] Provide one value: measured MIC of CN(C)CCNC(=O)C(CN)(Cc1ccc(C(C)(C)C)cc1)Cc1ccc(C(C)(C)C)cc1 [Compound 24]
[out] 2.5 µg/mL

[in] Provide one value: measured MIC of CC(C)(C)c1ccc(CC(CN)(Cc2ccc(C(C)(C)C)cc2)C(=O)NCCN)cc1 [Compound 11]
[out] 2.5 µg/mL

====

- Test system: methicillin resistant Staphylococcus aureus (ATCC 33591)
- assay.explanation: microbe, parasite or virus in culture
- Assay type: cell-based
- protocol.conditions: ATCC 33591; read-out: MIC MTRSA
Record form. Attribute: MIC. Fill in for each entry.
// units = µM; emit number, no label

[in] Provide one value: measured MIC of CN(C)CCN1CCN(C(=O)C(CN)(Cc2ccc3ccccc3c2)Cc2ccc3ccccc3c2)CC1
[out] 3.4

[in] Provide one value: measured MIC of CN(C)CCN1CCN(C(=O)C(CN)(Cc2ccc(C(F)(F)F)cc2)Cc2ccc(C(F)(F)F)cc2)CC1
[out] 6.5

[in] Provide one value: measured MIC of CN(C)CCN1CCN(C(=O)C(CN)(Cc2ccc(C(C)(C)C)cc2)Cc2ccc(C(C)(C)C)cc2)CC1
[out] 13

[in] Provide one value: measured MIC of CN(C)CCN1CCN(C(=O)C(CN)(CCCc2ccccc2)CCCc2ccccc2)CC1
[out] 72

====

- System: A20
- assay.explanation: cells
- Type: cell-based
- protocol.conditions: ratio of RBC EC50 to A20 IC50
Record form. Attribute: Anti-Cancer Selectivity RBC/A20. Fill in for each entry.
Number, no unit, nothing else.

[in] Give Anti-Cancer Selectivity RBC/A20 only, for NCCNC(=O)C(CN)(Cc1ccc2ccccc2c1)Cc1ccc2ccccc2c1 [Compound 7] , using A20 data.
[out] 417

[in] Give Anti-Cancer Selectivity RBC/A20 only, for CC(C)(C)c1ccc(CC(CN)(Cc2ccc(C(C)(C)C)cc2)C(=O)NCCN)cc1 [Compound 11] , using A20 data.
[out] 10.9

[in] Give Anti-Cancer Selectivity RBC/A20 only, for NCCNC(=O)C(CN)(CCC1CCCCC1)CCC1CCCCC1 [Compound 3] , using A20 data.
[out] 36.5

[in] Give Anti-Cancer Selectivity RBC/A20 only, for NCCNC(=O)C(CN)(CCCc1ccccc1)CCCc1ccccc1 [Compound 6] , using A20 data.
[out] 98.8

[in] Give Anti-Cancer Selectivity RBC/A20 only, for CC(C)c1ccc(CC(CN)(Cc2ccc(C(C)C)cc2)C(=O)NCCN)cc1 [Compound 10] , using A20 data.
[out] 33.6

[in] Give Anti-Cancer Selectivity RBC/A20 only, for NCCNC(=O)C(CN)(Cc1ccc(C(F)(F)F)cc1)Cc1ccc(C(F)(F)F)cc1 [Compound 9] , using A20 data.
[out] 287

====

- Tested on: Escherichia coli (ATTC 25922)
- assay.explanation: microbe, parasite or virus in culture
- Format: cell-based
- protocol.conditions: Escherichia coli, Example 2; values separated by / are repeat tests; read-out: Antimicrobial potency (MIC) E. coli
Record form. Attribute: MIC. Fill in for each entry.
// units = µg/mL; emit number, no label

[in] Provide one value: measured MIC of CC(C)(C)c1ccc(CC(CN)(Cc2ccc(C(C)(C)C)cc2)C(=O)NCCN)cc1 [Compound 11]
[out] 5

[in] Provide one value: measured MIC of CN1CCN(C(=O)C(CN)(Cc2ccc3ccccc3c2)Cc2ccc3ccccc3c2)CC1 [Compound 32]
[out] 15

[in] Provide one value: measured MIC of CN(C)CCN1CCN(C(=O)C(CN)(CCCc2ccccc2)CCCc2ccccc2)CC1 [Compound 36]
[out] 200

[in] Provide one value: measured MIC of Cc1cc(C)cc(CC(CN)(Cc2cc(C)cc(C)c2)C(=O)N2CCN(C)CC2)c1 [Compound 30]
[out] 200

[in] Provide one value: measured MIC of Cc1cc(C)cc(CC(CN)(Cc2cc(C)cc(C)c2)C(=O)NCCN)c1 [Compound 12]
[out] 50

[in] Provide one value: measured MIC of CN(C)CCNC(=O)C(CN)(Cc1ccc(C(C)(C)C)cc1)Cc1ccc(C(C)(C)C)cc1 [Compound 24]
[out] 5

[in] Provide one value: measured MIC of CN1CCN(C(=O)C(CN)(CCCc2ccccc2)CCCc2ccccc2)CC1 [Compound 31]
[out] 200

====

- System: MRC-5
- assay.explanation: Toxicity assay MRC-5
- Assay type: cell-based
- protocol.conditions: Example 2; highest concentration tested 500 μg/ml
experimental.endpoint: Toxicity MRC-5 (µg/mL)
// units = µg/mL; emit number, no label

[in] Provide one value: measured Toxicity MRC-5 of NCCNC(=O)C(CN)(Cc1ccc2ccccc2c1)Cc1ccc2ccccc2c1
[out] 14

[in] Provide one value: measured Toxicity MRC-5 of Cc1ccc(CC(CN)(Cc2ccc(C)cc2)C(=O)NCCN)cc1
[out] 44

[in] Provide one value: measured Toxicity MRC-5 of NCCCC[C@@H](N)C(=O)N[C@H](CCCCN)C(=O)N[C@H](Cc1c[nH]c2ccccc12)C(=O)NCC(Cc1ccc(C(F)(F)F)cc1)(Cc1ccc(C(F)(F)F)cc1)C(=O)N[C@@H](Cc1c[nH]c2ccccc12)C(=O)N[C@@H](CCCCN)C(=O)N[C@@H](CCCCN)C(N)=O
[out] 260

[in] Provide one value: measured Toxicity MRC-5 of NCCNC(=O)C(CN)(Cc1ccc(C(F)(F)F)cc1)Cc1ccc(C(F)(F)F)cc1
[out] 12

====

Record form. Attribute: Anticancer potency (IC50) A20. Fill in for each entry.
- Tested on: A20
- assay.explanation: cells
- Format: cell-based
Starred links: 1 amine or outer side, 2 acyl side, 3 side chain; linkers in the order of their positions; H or OH if unused. Non-standard residues stand in square brackets, D forms with d. Residues, ends and D or L forms follow the SMILES beside them. X4 = O=C(C(CN[*:1])(Cc1ccc(F)cc1)Cc1ccc(F)cc1)[*:2]; X5 = O=C(C(CCC1CCCCC1)(CCC1CCCCC1)CN[*:1])[*:2]; X3 = O=C(C(CN[*:1])(Cc1ccccc1)Cc1ccccc1)[*:2]
Please provide the amount together with its unit, number first.

[in] Provide one value: measured Anticancer potency (IC50) A20 of NCCCC[C@@H](N)C(=O)N[C@H](CCCCN)C(=O)N[C@H](Cc1c[nH]c2ccccc12)C(=O)NCC(Cc1ccc2ccccc2c1)(Cc1ccc2ccccc2c1)C(=O)N[C@@H](Cc1c[nH]c2ccccc12)C(=O)N[C@@H](CCCCN)C(=O)N[C@@H](CCCCN)C(N)=O
[out] 24 µg/mL

[in] Provide one value: measured Anticancer potency (IC50) A20 of NCCCC[C@@H](N)C(=O)N[C@H](CCCCN)C(=O)N[C@H](Cc1c[nH]c2ccccc12)C(=O)NCC(Cc1ccc(C(F)(F)F)cc1)(Cc1ccc(C(F)(F)F)cc1)C(=O)N[C@@H](Cc1c[nH]c2ccccc12)C(=O)N[C@@H](CCCCN)C(=O)N[C@@H](CCCCN)C(N)=O
[out] 37 µg/mL

[in] Provide one value: measured Anticancer potency (IC50) A20 of NCCCC[C@@H](N)C(=O)N[C@H](CCCCN)C(=O)N[C@H](Cc1c[nH]c2ccccc12)C(=O)NCC(Cc1ccc(F)cc1)(Cc1ccc(F)cc1)C(=O)N[C@@H](Cc1c[nH]c2ccccc12)C(=O)N[C@@H](CCCCN)C(=O)N[C@@H](CCCCN)C(N)=O [Compound 19] (H-[dK][dK][dW][X4]WKK-NH2)
[out] 197 µg/mL

[in] Provide one value: measured Anticancer potency (IC50) A20 of NCCCC[C@@H](N)C(=O)N[C@H](CCCCN)C(=O)N[C@H](Cc1c[nH]c2ccccc12)C(=O)NCC(Cc1ccccc1)(Cc1ccccc1)C(=O)N[C@@H](Cc1c[nH]c2ccccc12)C(=O)N[C@@H](CCCCN)C(=O)N[C@@H](CCCCN)C(N)=O [Compound 16] (H-[dK][dK][dW][X3]WKK-NH2)
[out] 263 µg/mL

[in] Provide one value: measured Anticancer potency (IC50) A20 of NCCCC[C@@H](N)C(=O)N[C@H](CCCCN)C(=O)N[C@H](Cc1c[nH]c2ccccc12)C(=O)NCC(CCC1CCCCC1)(CCC1CCCCC1)C(=O)N[C@@H](Cc1c[nH]c2ccccc12)C(=O)N[C@@H](CCCCN)C(=O)N[C@@H](CCCCN)C(N)=O [Compound 15] (H-[dK][dK][dW][X5]WKK-NH2)
[out] 15.0 µg/mL
